assay: in vitro; details: human, hela cells
Overview of reported MNTC across a group of compounds:

compound | recorded-metric | observed
CNc1ncnc2c1ncn2[C@H]1C[C@@H](O)[C@H](O)[C@@H]1O (relative stereo) | MNTC | > 400 µg/mL

Next:
q: Would you mind telling me what MNTC value was observed for Nc1ncnc2c1ncn2[C@@H]1C[C@H](O)[C@@H](O)[C@H]1O (racemic) ?
a: > 400 µg/mL
